Assay: Aqueous solubility in different cyclodextrin solutions (excess compound, shaken 24 hours, HPLC)
Type: physicochemical
Conditions: aqueous cyclodextrin solution, aqueous with cosolvent or surfactant or cyclodextrin, thermodynamic from solid, ACD 20 mg/ml, room temperature, read-out: Solubility in CD's solution (concentration of compound)
TEST READOUT: solubility at 24 h (µg/mL)
Report the value in µg/mL with no unit label.

Tell me solubility at 24 h reported for Cc1cccc(COc2ccc(Sc3ccoc3C3NC(=O)NC3=O)cc2)c1 (stereo not shown) [IVO]
13

* * *

Please go through the items and note down their solubility at 24 h.
Assay: Aqueous solubility in different cyclodextrin solutions (excess compound, shaken 24 hours, HPLC)
Assay type: physicochemical
Settings: aqueous cyclodextrin solution, aqueous with cosolvent or surfactant or cyclodextrin, thermodynamic from solid, HPGCD 100 mg/ml, room temperature, read-out: Solubility in CD's solution (concentration of compound)
Write the quantity with the unit trailing the number.

Tell me solubility at 24 h reported for Cc1cccc(COc2ccc(Sc3ccoc3C3NC(=O)NC3=O)cc2)c1 (stereo not drawn)
2 µg/mL

Tell me solubility at 24 h reported for Cc1ccccc1COc1ccc(Sc2ccoc2C2NC(=O)NC2=O)cc1 (stereo not drawn)
1 µg/mL

Tell me solubility at 24 h reported for COc1cccc(COc2ccc(Sc3ccoc3C3NC(=O)NC3=O)cc2)c1 (stereo not drawn)
59 µg/mL

* * *

Experiment: Aqueous solubility in different cyclodextrin solutions (excess compound, shaken 24 hours, HPLC)
Format: physicochemical
Conditions: aqueous cyclodextrin solution, aqueous with cosolvent or surfactant or cyclodextrin, thermodynamic from solid, MBCD 25 mg/ml, room temperature, read-out: Solubility in CD's solution (concentration of compound)
TEST READOUT: solubility at 24 h (µg/mL)
Report the value in µg/mL with no unit label.

Tell me solubility at 24 h reported for Cc1cccc(COc2ccc(Sc3ccoc3C3NC(=O)NC3=O)cc2)c1 (stereo not shown)
244

* * *

Assay: Aqueous solubility in different cyclodextrin solutions (excess compound, shaken 24 hours, HPLC)
Assay type: physicochemical
Details: aqueous cyclodextrin solution, aqueous with cosolvent or surfactant or cyclodextrin, thermodynamic from solid, SBEBCD 50 mg/ml, room temperature, read-out: Solubility in CD's solution (concentration of compound)
TEST READOUT: solubility at 24 h (µg/mL)
Report the value in µg/mL with no unit label.

Tell me solubility at 24 h reported for Cc1cccc(COc2ccc(Sc3ccoc3C3NC(=O)NC3=O)cc2)c1 (stereo not shown) [IVO]
116

* * *

Assay: Aqueous solubility in different cyclodextrin solutions (excess compound, shaken 24 hours, HPLC)
Format: physicochemical
Settings: aqueous cyclodextrin solution, aqueous with cosolvent or surfactant or cyclodextrin, thermodynamic from solid, ACD 30 mg/ml, room temperature, read-out: Solubility in CD's solution (concentration of compound)
TEST READOUT: solubility at 24 h (µg/mL)
Report the value in µg/mL with no unit label.

Tell me solubility at 24 h reported for Cc1cccc(COc2ccc(Sc3ccoc3C3NC(=O)NC3=O)cc2)c1 (stereo not shown)
10

* * *

Experiment: Aqueous solubility in different cyclodextrin solutions (excess compound, shaken 24 hours, HPLC)
Format: physicochemical
Settings: aqueous cyclodextrin solution, aqueous with cosolvent or surfactant or cyclodextrin, thermodynamic from solid, MBCD 200 mg/ml, room temperature, read-out: Solubility in CD's solution (concentration of compound)
TEST READOUT: solubility at 24 h (µg/mL)
Report the value in µg/mL with no unit label.

Tell me solubility at 24 h reported for Cc1cccc(COc2ccc(Sc3ccoc3C3NC(=O)NC3=O)cc2)c1 (stereo not shown)
1780
